test system: NCI-H322M; experiment: relative viability (nuclei count vs DMSO), 5 days (fraction); higher = more cells survive; settings: first compound 0.08 µM
parameterMeasured: relative viability
No unit in the answer, only the number.

Given the compound CCCCCCCCCCCC1=C(O)C(=O)C=C(O)C1=O [Embelin] + COc1cc2c(Oc3ccc(NC(=O)C4(C(=O)Nc5ccc(F)cc5)CC4)cc3F)ccnc2cc1OCCCN1CCOCC1 [Foretinib] (partner 0.25 µM) , write its reported relative viability.
0.938

Return value of relative viability for input CCCCCCCCCCCC1=C(O)C(=O)C=C(O)C1=O [Embelin] + NC(=O)Nc1cc(-c2cccc(F)c2)sc1C(=O)N[C@H]1CCCNC1 [AZD7762] (partner 0.2 µM) , no commentary.
0.585

Identify relative viability associated with the compound CCCCCCCCCCCC1=C(O)C(=O)C=C(O)C1=O [Embelin] + COc1cccc2cc(-c3nc([C@H]4CC[C@H](C(=O)O)CC4)n4ncnc(N)c34)[nH]c12 [OSI-027] (partner 0.5 µM)
0.523

Fill in reported relative viability for this entry: CCCCCCCCCCCC1=C(O)C(=O)C=C(O)C1=O [Embelin] + Cc1nc(NC(=O)N2CCC[C@H]2C(N)=O)sc1-c1ccnc(C(C)(C)C(F)(F)F)c1 [Alpelisib] (partner 2 µM)
0.833

Please report the measured relative viability for CCCCCCCCCCCC1=C(O)C(=O)C=C(O)C1=O [Embelin] + C[C@]1(O)C[C@@H](c2nc(-c3ccc4ccc(-c5ccccc5)nc4c3)c3c(N)nccn32)C1 [Linsitinib] (partner 1 µM)
0.936

Supply reported relative viability belonging to this compound: CCCCCCCCCCCC1=C(O)C(=O)C=C(O)C1=O [Embelin] + CS(=O)(=O)CCNCc1ccc(-c2ccc3ncnc(Nc4ccc(OCc5cccc(F)c5)c(Cl)c4)c3c2)o1 [Lapatinib] (partner 2 µM)
0.548

---

test system: HOP-62; assay: relative viability (nuclei count vs DMSO), 5 days (fraction); higher = more cells survive; conditions: first compound 0.4 µM
One threshold, 0.9, splits the recorded relative viability values: lower ones are Satisfied, equal or higher ones are Not satisfied.

Is the reported relative viability for C[C@@H]1CN(CC(=O)Nc2ccc3c(c2)Cc2cccc(-c4cc(=O)cc(N5CCOCC5)o4)c2S3)C[C@H](C)O1 + COc1cccc2cc(-c3nc([C@H]4CC[C@H](C(=O)O)CC4)n4ncnc(N)c34)[nH]c12 [OSI-027] (partner 0.5 µM) strictly below 0.9?
Satisfied

For this compound, is relative viability lower than 0.9? C[C@@H]1CN(CC(=O)Nc2ccc3c(c2)Cc2cccc(-c4cc(=O)cc(N5CCOCC5)o4)c2S3)C[C@H](C)O1 + Cc1nc(NC(=O)N2CCC[C@H]2C(N)=O)sc1-c1ccnc(C(C)(C)C(F)(F)F)c1 [Alpelisib] (partner 2 µM)
Not satisfied

State whether 0.9 exceeds relative viability recorded for COc1cc(N2CCC(C(N)=O)CC2)ccc1Nc1nc(N)c(Cl)c(Nc2ccccc2S(=O)(=O)C(C)C)n1 [HG-5-88-01] + O=C(CCCCCCC(=O)Nc1ccccc1)NO [Vorinostat] (partner 1 µM) .
Satisfied

Please indicate whether the reported relative viability of Clc1ccc(Nc2nnc(Cc3ccncc3)c3ccccc23)cc1 [Vatalanib] + CS(=O)(=O)CCNCc1ccc(-c2ccc3ncnc(Nc4ccc(OCc5cccc(F)c5)c(Cl)c4)c3c2)o1 [Lapatinib] (partner 2 µM) is strictly below 0.9.
Not satisfied

Lab log: compare recorded relative viability with 0.9; is it strictly lower for COc1cc(N2CCC(C(N)=O)CC2)ccc1Nc1nc(N)c(Cl)c(Nc2ccccc2S(=O)(=O)C(C)C)n1 [HG-5-88-01] + CC(=O)Nc1cccc(-n2c(=O)n(C3CC3)c(=O)c3c(Nc4ccc(I)cc4F)n(C)c(=O)c(C)c32)c1 [Trametinib] (partner 0.02 µM) ?
Satisfied

Bench note: check whether COc1cc(N2CCC(C(N)=O)CC2)ccc1Nc1nc(N)c(Cl)c(Nc2ccccc2S(=O)(=O)C(C)C)n1 [HG-5-88-01] + Cc1nc(NC(=O)N2CCC[C@H]2C(N)=O)sc1-c1ccnc(C(C)(C)C(F)(F)F)c1 [Alpelisib] (partner 2 µM) shows relative viability below 0.9
Not satisfied

Report whether reported relative viability is lower than 0.9 (strictly) for COc1cc(N2CCC(C(N)=O)CC2)ccc1Nc1nc(N)c(Cl)c(Nc2ccccc2S(=O)(=O)C(C)C)n1 [HG-5-88-01] + COc1cc2c(Oc3ccc(NC(=O)C4(C(=O)Nc5ccc(F)cc5)CC4)cc3F)ccnc2cc1OCCCN1CCOCC1 [Foretinib] (partner 0.25 µM)
Not satisfied

relative viability strictly < 0.9 for this compound? Clc1ccc(Nc2nnc(Cc3ccncc3)c3ccccc23)cc1 [Vatalanib] + CC(C)C[C@H](NC(=O)[C@H](Cc1ccccc1)NC(=O)c1cnccn1)B(O)O [Bortezomib] (partner 0.002 µM)
Satisfied

---

Task for the reader: assign each of the following compounds its reported relative viability.
system: NCI-H2347; assay: relative viability (nuclei count vs DMSO), 5 days (fraction); higher = more cells survive; conditions: first compound 0.4 µM

Supply relative viability value. Item: Clc1ccc(Nc2nnc(Cc3ccncc3)c3ccccc23)cc1 [Vatalanib] + CS(=O)(=O)N1CCN(Cc2cc3nc(-c4cccc5[nH]ncc45)nc(N4CCOCC4)c3s2)CC1 [Pictilisib] (partner 1 µM)
0.409

Using the record for Clc1ccc(Nc2nnc(Cc3ccncc3)c3ccccc23)cc1 [Vatalanib] + COc1cccc2cc(-c3nc([C@H]4CC[C@H](C(=O)O)CC4)n4ncnc(N)c34)[nH]c12 [OSI-027] (partner 0.5 µM) , state its measured relative viability.
0.488

Hello, please tell me recorded relative viability for this one: Clc1ccc(Nc2nnc(Cc3ccncc3)c3ccccc23)cc1 [Vatalanib] + Nc1ncn([C@H]2C[C@H](O)[C@@H](CO)O2)c(=O)n1 [Decitabine] (partner 2 µM)
0.624

Quickly give me recorded relative viability for COc1cc(N2CCC(C(N)=O)CC2)ccc1Nc1nc(N)c(Cl)c(Nc2ccccc2S(=O)(=O)C(C)C)n1 [HG-5-88-01] + N=C(N)NC(=N)NCCc1ccccc1 [Phenformin] (partner 250 µM)
0.448

Please give the documented relative viability of C[C@@H]1CN(CC(=O)Nc2ccc3c(c2)Cc2cccc(-c4cc(=O)cc(N5CCOCC5)o4)c2S3)C[C@H](C)O1 + COc1cccc2cc(-c3nc([C@H]4CC[C@H](C(=O)O)CC4)n4ncnc(N)c34)[nH]c12 [OSI-027] (partner 0.5 µM)
0.415

---

test system: NCI-H1437; experiment: relative viability (nuclei count vs DMSO), 5 days (fraction); higher = more cells survive; settings: first compound 0.08 µM
Quick rule for you: relative viability under 0.6 gets satisfied, anything else gets not satisfied.

Does CCCCCCCCCCCC1=C(O)C(=O)C=C(O)C1=O [Embelin] + Cc1nc(NC(=O)N2CCC[C@H]2C(N)=O)sc1-c1ccnc(C(C)(C)C(F)(F)F)c1 [Alpelisib] (partner 2 µM) have relative viability strictly under 0.6?
not satisfied

Find out if reported relative viability for CCCCCCCCCCCC1=C(O)C(=O)C=C(O)C1=O [Embelin] + C[C@@H](Oc1cc(-c2cnn(C3CCNCC3)c2)cnc1N)c1c(Cl)ccc(F)c1Cl [Crizotinib] (partner 1 µM) is less than 0.6
not satisfied

Hello, is relative viability of the following compound strictly smaller than 0.6? CCCCCCCCCCCC1=C(O)C(=O)C=C(O)C1=O [Embelin] + O=C(CCCCCCC(=O)Nc1ccccc1)NO [Vorinostat] (partner 1 µM)
not satisfied

Threshold test, relative viability < 0.6: CCCCCCCCCCCC1=C(O)C(=O)C=C(O)C1=O [Embelin] + Cc1cc(Nc2cc(N3CCN(C)CC3)nc(Sc3ccc(NC(=O)C4CC4)cc3)n2)n[nH]1 [Tozasertib] (partner 0.1 µM)
satisfied

Please indicate whether the reported relative viability of CCCCCCCCCCCC1=C(O)C(=O)C=C(O)C1=O [Embelin] + Cc1nc(Nc2ncc(C(=O)Nc3c(C)cccc3Cl)s2)cc(N2CCN(CCO)CC2)n1 [Dasatinib] (partner 0.075 µM) is strictly below 0.6.
satisfied

Lab note: relative viability threshold 0.6. Does this compound come in strictly under it? CCCCCCCCCCCC1=C(O)C(=O)C=C(O)C1=O [Embelin] + CS(=O)(=O)CCNCc1ccc(-c2ccc3ncnc(Nc4ccc(OCc5cccc(F)c5)c(Cl)c4)c3c2)o1 [Lapatinib] (partner 2 µM)
not satisfied

For this compound, is relative viability lower than 0.6? CCCCCCCCCCCC1=C(O)C(=O)C=C(O)C1=O [Embelin] + COc1cccc2cc(-c3nc([C@H]4CC[C@H](C(=O)O)CC4)n4ncnc(N)c34)[nH]c12 [OSI-027] (partner 0.5 µM)
not satisfied

Would you kindly verify if relative viability of CCCCCCCCCCCC1=C(O)C(=O)C=C(O)C1=O [Embelin] + COc1cc2c(Oc3ccc(NC(=O)C4(C(=O)Nc5ccc(F)cc5)CC4)cc3F)ccnc2cc1OCCCN1CCOCC1 [Foretinib] (partner 0.25 µM) is strictly less than 0.6?
not satisfied
